condition-parameters: in acetonitrile, 278.15 K
result-type: solubility (mole fraction)

Name the recorded solubility (mole fraction) of the compound listed here: `CCc1nc(N)nc(N)c1-c1ccc(Cl)cc1` 9.12e-05

* * *

condition-parameters: in methyl acetate, 303.15 K
result-type: solubility (mole fraction)
No unit in the answer, please; the number alone is enough.

Name the recorded solubility (mole fraction) of the molecule listed here: `CCc1nc(N)nc(N)c1-c1ccc(Cl)cc1` 0.00127

* * *

condition-parameters: in ethyl acetate, 293.15 K
result-type: solubility (mole fraction)
No unit in the answer, please; the number alone is enough.

Name the recorded solubility (mole fraction) of the compound listed here: `CCc1nc(N)nc(N)c1-c1ccc(Cl)cc1` 0.00194
